- test_description: in vitro
- condition_set: human
Where a name gives a salt, the structure may show the parent alone.
I'd be grateful if you could share measured CC50 at 3 days for these entries.

Fill in: CC50 at 3 days of O=c1c2ccccc2[se]n1-c1ccccc1 [Ebselen] is ___
> 100 µM

Fill in: CC50 at 3 days of CC(c1cc2ccccc2s1)N(O)C(N)=O (stereo not drawn) [Zileuton] is ___
46.7 µM

Fill in: CC50 at 3 days of Cc1cccc(/C=N/Nc2cc(N3CCOCC3)nc(OCCc3ccccn3)n2)c1 [Apilimod mesylate] is ___
> 100 µM

Fill in: CC50 at 3 days of CC(=O)Oc1ccccc1C(=O)Nc1ncc([N+](=O)[O-])s1 [Nitazoxanide] is ___
49.8 µM

Fill in: CC50 at 3 days of NC(=O)c1nc(F)c[nH]c1=O [Favipiravir] is ___
> 300 µM

Fill in: CC50 at 3 days of N#C[C@@]1(c2ccc3c(N)ncnn23)O[C@H](CO)[C@@H](O)[C@H]1O [GS-441524] is ___
> 100 µM
